Recorded values, source patent US11203587B2.

Experimental target: THR beta-LBD (Homo sapiens)
Construct: THR alpha-LBD (0.4 nM final concentration) or THR beta-LBD (1.0 nM final concentration) was added; purchased ThermoFisher
Sequence (P10828 217-461 limits assumed): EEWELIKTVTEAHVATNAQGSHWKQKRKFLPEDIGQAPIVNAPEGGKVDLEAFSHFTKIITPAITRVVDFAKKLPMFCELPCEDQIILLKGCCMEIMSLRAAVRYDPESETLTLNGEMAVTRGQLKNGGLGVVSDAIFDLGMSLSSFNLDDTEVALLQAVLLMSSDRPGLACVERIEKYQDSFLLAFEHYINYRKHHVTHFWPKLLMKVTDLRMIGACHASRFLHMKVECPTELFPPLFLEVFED
Experiment: LanthaScreen TR-FRET Thyroid Receptor beta Coactivator Assay
Assay type: biochemical
Measurement context: TR-FRET coactivator assay, 2 hours incubation at room temperature; run in duplicate multiple times, average data; read-out: EC50 THRβ-FRET
Measurement type: pEC50
pEC50 here is simply -log10 of the concentration when that concentration is written in mol/L.

[
  {
    "Compound": "CC(O)c1cc(Oc2c(Cl)cc(-c3nn(C)c(=O)[nH]c3=O)cc2Cl)n[nH]c1=O (centres unmarked)",
    "Value measured": 6.01
  }
]

[Q] Item under review: CC(C)c1cc(Oc2c(Cl)cc(-c3nn(C)c(=O)[nH]c3=O)cc2Cl)nn(C)c1=O . Reported pEC50?
[A] 7.62

[Q] Item under review: CC(C)c1cc(Oc2c(Cl)cc(-c3n[nH]c(=O)[nH]c3=O)cc2Cl)n[nH]c1=O . Reported pEC50?
[A] 6.85

[Q] Item under review: CCC(O)c1cc(Oc2c(Cl)cc(-c3nn(C)c(=O)[nH]c3=O)cc2Cl)n[nH]c1=O (centres unmarked) . Reported pEC50?
[A] 6.67

[Q] Item under review: CCC(CC)c1cc(Oc2c(Cl)cc(-c3nn(C)c(=O)[nH]c3=O)cc2Cl)n[nH]c1=O . Reported pEC50?
[A] 6.67

[Q] Item under review: CC(C)c1cc(Oc2c(Cl)cc(-c3nn(CC(F)F)c(=O)[nH]c3=O)cc2Cl)nn(C)c1=O . Reported pEC50?
[A] 5.92

[Q] Item under review: CC(C)c1cc(Cc2c(Cl)cc(-c3n[nH]c(=O)[nH]c3=O)cc2Cl)n[nH]c1=O . Reported pEC50?
[A] 6.42

[Q] Item under review: CC(C)c1cc(Cc2c(Cl)cc(-c3nn(C)c(=O)[nH]c3=O)cc2Cl)n[nH]c1=O . Reported pEC50?
[A] 6.79
